conditions: in isopropanol, 293.15 K
readoutLabel: solubility (mole fraction)
Number only, no unit.

Task: Any idea what its solubility (mole fraction) is? The compound is COc1cc([N+](=O)[O-])ccc1N
Output: 0.00322
